# study_system: T1, biotinylated synthetic human Amyloid beta 1-42 peptide (human, UniProt P05067 672-713, biotinylated (N-terminal biotin in Example 4))
# T1 construct: domain: Amyloid beta 1-42 peptide; Numbers 1-42 count on the Amyloid beta peptide, not on APP; also called biotinylated human Amyloid beta 1-42; N-terminal biotin Abeta 1-42
# T1 sequence (P05067 672-713 limits assumed): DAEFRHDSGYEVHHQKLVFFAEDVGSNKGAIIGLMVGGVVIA
# procedure_details: SPR (ProteOn); biotinylated peptide on streptavidin chip, scFv in solution
Attribute: koff
Response body: numeric value in s⁻¹, unit text excluded.

Example results:
Abet0343 scFv (scFv, V domains shown, not shown: small tags and cut ends, Purified scFv expressed in E. coli) VH: EVQLLESGGGLVQPGGSLRLSCAASGFNFNHQVMWWVRQAPGKGLEWVSVIGKTNENIAYADSVKGRFTISRDNSKNTLYLQMNSLRAEDTAVYYCAREWMDHSRPYYYYGMDVWGQGTLVTVSS VL: QSVLTQPPSVSVSPGQTASITCSGHNLEDKFASWYQQKSGQSPVLVIYRDDKRPSGIPERFSASNSGHTATLTISGTQATDEADYYCSSQDTVTRVFGGGTKLTVL ... 2.25e-05
Abet0379 scFv (scFv, V domains shown, not shown: small tags and cut ends, Purified scFv expressed in E. coli) VH: EVQLLESGGGLVQPGGSLRLSCAASGFDFAETPLWWVRQAPGERLEWVSVIGSNQNKTAYADSVKGRFTISRDNSKDTLYLQMNSLRAEDTAVYYCAREWMDHSRPYYYYGMDVWGQGTLVTVSS VL: QSVLTQPPSVSVSPGQTASITCSGHNLEDKFASWYQQKSGQSPVLVIYRDDKRPSGIPERFSASNSGHTATLTISGTQATDGADYYCATQDNFTRVFGGGTKLTVL ... 4.39e-05
Abet0144-GL scFv (scFv, V domains shown, not shown: small tags and cut ends, Purified scFv expressed in E. coli; also called parent clone) VH: EVQLLESGGGLVQPGGSLRLSCAASGFTFSVYTMWWVRQAPGKGLEWVSVIGSSGGTTVYADSVKGRFTISRDNSKNTLYLQMNSLRAEDTAVYYCAREWMDHSRPYYYYGMDVWGQGTLVTVSS VL: SYELTQPPSVSVSPGQTASITCSGHNLEDKFASWYQQKPGQSPVLVIYRDDKRPSGIPERFSASNSGHTATLTISGTQAMDEADYYCQAQDSTTRVFGGGTKLTVL ... 0.0066

Enquiry: Fill in the blank: the reported koff of Abet0323b scFv (scFv, V domains shown, not shown: small tags and cut ends, Purified scFv expressed in E. coli) VH: EVQLLESGGGLVQPGGSLRLSCAASTSTFQEDTMWWVRQAPGKGLEWVSVIGPNPKNNAYADSVKGRFTISRDNSKNTLYLQMNSLRAEDTAVYYCAREWMDHSRPYYYYGMDVWGQGTLVTVSS VL: SYELTQPPSVSVSPGQTASITCSGHNLEDKFASWYQQKPGQSPVLVIYRDDKRPSGVPERFSASNSGHTATLTISGTQATDEADYYCSSQDTVTRVFGGGTKLIVL is ____.
Return: 0.000188

Enquiry: Also, Abet0328 scFv (scFv, V domains shown, not shown: small tags and cut ends, Purified scFv expressed in E. coli) VH: EVQLLESGGGLVQPGGSLRLSCAASRDPFKADTMWWVRQAPRKRLEWVSVIGAHTTNSAYADSVKGRFTISRDNSKNTLYLQMNSLRAEDTAVYYCAREWMDRSRPYYYYGMDVWGQGTLVTVSS VL: SYELTQPPSVSVSPGQTVSITCSGRNLEDKFASWYQQKPGQSPVLVIYRDDKRPSGVPERFSASNSGHTATLTISGTQATDEADYYCSSQDTVTRVFGGGTKLTVL please.
Return: 0.000103

Enquiry: Quick one: Abet0378 scFv (scFv, V domains shown, not shown: small tags and cut ends) VH: EVQLLESGGGLVQPGGSLRLSCAASGFPFETDIMWWVRQAPGKGLEWVSVIGTNTDNVAYADSVKGRFTISRDNSKNTLYLQMNSLRAEDTAVYYCAREWMDHSRPYYYYGMDVWGQGTLVTVSS VL: SYELTQPPSVSVSPGQTASITCSGHNLEDKFASWYQQKPGQSPVLVIYRDDKRPSGIPERFSASNSGHTATLTISGTQATDEADYYCSSQDTVTRVFGGGTKLTVL
Return: 6.41e-05
